System: intracellular proteome of ENR+CD and ENR organoids
Assay: LC-MS/MS TMT proteomics of ENR+CD versus ENR organoids
Type: cell-based, C57BL/6 mice
Details: up = enriched in ENR+CD, down = enriched in ENR; FDR<0.05 and log fold change cut-off
Property measured: change

P52800 (protein, UniProt P52800 1-336, looked up, full-length) MAMARSRRDSVWKYCWGLLMVLCRTAISRSIVLEPIYWNSSNSKFLPGQGLVLYPQIGDKLDIICPKVDSKTVGQYEYYKVYMVDKDQADRCTIKKENTPLLNCARPDQDVKFTIKFQEFSPNLWGLEFQKNKDYYIISTSNGSLEGLDNQEGGVCQTRAMKILMKVGQDASSAGSARNHGPTRRPELEAGTNGRSSTTSPFVKPNPGSSTDGNSAGHSGNNLLGSEVALFAGIASGCIIFIVIIITLVVLLLKYRRRHRKHSPQHTTTLSLSTLATPKRGGNNNGSEPSDVIIPLRTADSVFCPHYEKVSGDYGHPVYIVQEMPPQSPANIYYKV = down
Q7TQD2 (protein, UniProt Q7TQD2 1-218, looked up, full-length) MADSKAKPAKAANKTPPKSPGDPARAAKRLSLESEGANEGATAAPELSALEEAFRRFAVHGDTRATGKEMHGKNWSKLCKDCHVIDGKNVTVTDVDIVFSKIKGKSCRTITFEQFQEALEELAKKRFKDKSSEEAVREVHRLIEGRAPVISGVTKAVSSPTVSRLTDTSKFTGSHKERFDQSGKGKGKAGRVDLVDESGYVPGYKHAGTYDQKVQGGK = up

This collection of values is drawn from patent US11994512B2.
